Catalogue of S/W values
molecular target: hFZD7 CRD-Fc (human, UniProt O75084 33-185); assay: spot phage ELISA
quantity.name: S/W

- binder: "VPADDLASWCDVMY [SEQ ID NO 78]"
  quantity.name: "S/W"
  test.value: 2.9
- binder: "APADDLEAWCHVMY [SEQ ID NO 45]"
  quantity.name: "S/W"
  test.value: 3.1
- binder: "VAADDLAFWCDVMY [SEQ ID NO 88]"
  quantity.name: "S/W"
  test.value: 3
- binder: "LPADDLAVWCDVMY [SEQ ID NO 52]"
  quantity.name: "S/W"
  test.value: 3.1

Source: patent US20190359653A1
